Test system: P388
EXPERIMENTAL PROTOCOL: Cytotoxicity against mouse P388 cells after 1 to 11 days by MTT assay
Format: functional
MEASUREMENT CONTEXT: read-out: ID50 (the source's name)
VALUE TYPE: IC50 (nM)
Your answer is read as nM, so omit the unit and give the number.

SMILES DATA | DISPLAY UNIT | IC50
CN1C(=O)[C@]23SSS[C@]1(CO)C(=O)N2[C@H]1Nc2ccccc2[C@@]1(c1c[nH]c2ccccc12)[C@@H]3O | nM | 250
CS[C@@]1(CO)C(=O)N2[C@H]3Nc4ccccc4[C@@]3(c3c[nH]c4ccccc34)[C@H](O)[C@]2(SC)C(=O)N1C | nM | 2180

In: Fill: IC50 (P388) for this compound CN1C(=O)[C@]23SS[C@]1(CO)C(=O)N2[C@H]1Nc2ccccc2[C@@]1(c1c[nH]c2ccccc12)[C@@H]3O
Out: 560
